# key: entry, value: Artifact Signal (percent)
test: AlphaScreen counterscreen against bio-H3K4me2 peptide in the absence of enzyme (artifact signal); conditions: effect of the compound when incubated with bio-H3K4me2 peptide (counterscreen, no enzyme);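 note: counterscreen run without enzyme against bio-H3K4me2 peptide to remove false positive hits from the JARID1 demethylase AlphaScreen screen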
Give the quantity in %, number only.

COMPOUND	READOUT	MEASURED RESULT
COc1ccccc1OCc1nnc(S)n1C [YU146471]	Artifact Signal (percent)	−1.64

# Artifact Signal (percent) lookup, item Cn1cnnc1SCC(=O)c1ccc(C(C)(C)C)cc1 [YU149180] −2.49

Also O=[N+]([O-])c1cc(O)c(O)c([N+](=O)[O-])c1 [YU034463, 3,5-DINITROCATECHOL, reference compound] ? 11.72

Also N#CC(=Cc1cc(O)c(O)c(O)c1)C(N)=C(C#N)C#N (single isomer, unassigned) [YU154835, TYRPHOSTIN 51, reference compound] ? 23.01
